# assayInfo: Oral bioavailability in C57Bl/6J mouse at 30 mg/kg
# Format: ADME, organism-based
# measurementParameters: in vivo
attributeMeasured: bioavailability
Write the figure, then the unit, nothing else.

Data request: Provide measured bioavailability value, entry: CS(=O)(=O)c1ccc([C@@H](CC2CCCC2)C(=O)Nc2cnc([C@H](O)CO)cn2)cc1Cl
Data returned: 50.3%

====

# assayInfo: Oral bioavailability in dog at 30 mg/kg
# Type: ADME, organism-based, Canis lupus familiaris
# measurementParameters: in vivo
attributeMeasured: bioavailability (%)
Value expressed in %; do not type the unit.

Data request: Provide measured bioavailability value, entry: CS(=O)(=O)c1ccc([C@@H](CC2CCCC2)C(=O)Nc2cnc([C@H](O)CO)cn2)cc1Cl
Data returned: 84

====

# assayInfo: Clearance in dog at 10 mg/kg, iv
# Format: ADME, organism-based, Canis lupus familiaris
# Parameters: dose 10 mg/kg, route intravenous
# measurementParameters: in vivo
attributeMeasured: clearance (mL/min/kg)
Value expressed in mL/min/kg; do not type the unit.

Data request: Provide measured clearance value, entry: CS(=O)(=O)c1ccc([C@@H](CC2CCCC2)C(=O)Nc2cnc([C@H](O)CO)cn2)cc1Cl
Data returned: 8

====

# assayInfo: AUC (0 to infinity) in dog at 30 mg/kg, po
# Format: ADME, organism-based, Canis lupus familiaris
# Parameters: time infinity, dose 30 mg/kg, route oral
# measurementParameters: plasma
attributeMeasured: AUC(0-inf)
Write the figure, then the unit, nothing else.

Data request: Provide measured AUC(0-inf) value, entry: CS(=O)(=O)c1ccc([C@@H](CC2CCCC2)C(=O)Nc2cnc([C@H](O)CO)cn2)cc1Cl
Data returned: 54500 ng·h/mL

====

# assayInfo: Metabolic stability in human hepatocytes after 3 hrs by LC-MS/MS analysis
# Type: ADME, cell-based, Hepatocyte
# measurementParameters: read-out: Stability
attributeMeasured: remaining at 3 h (%)
Value expressed in %; do not type the unit.

Data request: Provide measured remaining at 3 h value, entry: CS(=O)(=O)c1ccc([C@@H](CC2CCCC2)C(=O)Nc2cnc([C@H](O)CO)cn2)cc1Cl
Data returned: 95

====

# assayInfo: Cmax in C57Bl/6J mouse at 30 mg/kg, po
# Type: ADME, organism-based
# Parameters: dose 30 mg/kg, route oral
# measurementParameters: in vivo
attributeMeasured: Cmax
Write the figure, then the unit, nothing else.

Data request: Provide measured Cmax value, entry: CS(=O)(=O)c1ccc([C@@H](CC2CCCC2)C(=O)Nc2cnc([C@H](O)CO)cn2)cc1Cl
Data returned: 1310 ng/mL

====

# assayInfo: Clearance in C57Bl/6J mouse at 10 mg/kg, iv
# Format: ADME, organism-based
# Set-up: dose 10 mg/kg, route intravenous
# measurementParameters: in vivo
attributeMeasured: clearance
Write the figure, then the unit, nothing else.

Data request: Provide measured clearance value, entry: CS(=O)(=O)c1ccc([C@@H](CC2CCCC2)C(=O)Nc2cnc([C@H](O)CO)cn2)cc1Cl
Data returned: 20.8 mL/min/kg

====

# assayedSystem: Voltage-gated inwardly rectifying potassium channel KCNH2 (Homo sapiens)
# Sequence (Q12809 whole entry): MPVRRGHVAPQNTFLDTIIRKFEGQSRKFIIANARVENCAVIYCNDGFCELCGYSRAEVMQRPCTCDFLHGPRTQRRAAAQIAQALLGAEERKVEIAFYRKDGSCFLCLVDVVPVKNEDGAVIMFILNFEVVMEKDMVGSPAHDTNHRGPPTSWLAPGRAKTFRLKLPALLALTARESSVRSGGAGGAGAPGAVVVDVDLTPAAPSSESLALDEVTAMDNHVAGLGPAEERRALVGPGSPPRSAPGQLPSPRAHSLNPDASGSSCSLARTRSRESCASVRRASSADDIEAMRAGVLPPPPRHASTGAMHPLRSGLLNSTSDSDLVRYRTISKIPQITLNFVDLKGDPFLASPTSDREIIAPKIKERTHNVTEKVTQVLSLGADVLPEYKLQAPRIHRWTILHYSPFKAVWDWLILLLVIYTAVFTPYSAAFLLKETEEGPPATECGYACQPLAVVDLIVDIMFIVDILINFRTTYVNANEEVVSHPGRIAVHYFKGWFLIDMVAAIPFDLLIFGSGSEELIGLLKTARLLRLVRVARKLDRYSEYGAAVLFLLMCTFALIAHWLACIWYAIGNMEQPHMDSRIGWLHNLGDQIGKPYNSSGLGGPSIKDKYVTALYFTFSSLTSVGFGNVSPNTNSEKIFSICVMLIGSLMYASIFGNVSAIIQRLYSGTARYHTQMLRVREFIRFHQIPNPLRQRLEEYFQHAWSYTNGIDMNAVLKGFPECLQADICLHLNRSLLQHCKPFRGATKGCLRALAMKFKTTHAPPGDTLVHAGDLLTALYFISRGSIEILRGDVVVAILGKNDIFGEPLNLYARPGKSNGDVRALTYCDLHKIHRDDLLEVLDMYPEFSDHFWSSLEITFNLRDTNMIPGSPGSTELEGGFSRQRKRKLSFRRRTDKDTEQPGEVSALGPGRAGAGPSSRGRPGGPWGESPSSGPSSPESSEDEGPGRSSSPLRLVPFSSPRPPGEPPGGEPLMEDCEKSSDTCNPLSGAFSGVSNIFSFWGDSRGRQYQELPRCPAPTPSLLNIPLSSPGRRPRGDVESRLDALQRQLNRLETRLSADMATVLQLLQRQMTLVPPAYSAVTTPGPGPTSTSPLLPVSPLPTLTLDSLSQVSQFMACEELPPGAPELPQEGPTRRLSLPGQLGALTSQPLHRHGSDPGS
attributeMeasured: IC50 (µM)
Value expressed in µM; do not type the unit.

Data request: Provide measured IC50 value, entry: CS(=O)(=O)c1ccc([C@@H](CC2CCCC2)C(=O)Nc2cnc([C@H](O)CO)cn2)cc1Cl
Data returned: 70
